# Tested on: SW1990
# experiment.description: Antiproliferative activity against human SW1990 cells after 48 hrs by MTT assay
# Format: functional, cell-based
# conditions.used: SW1990, 48 h
measure: IC50

test.smiles: CC1=C2CC[C@@](C)(O)[C@@H]2[C@H]2OC(=O)[C@@H](CN(C)C)[C@@H]2CC1.O=C(O)/C=C/C(=O)O
observed.result: 3.9 to 16.2 µM

* * *

# experiment.description: Toxicity in zebrafish embryo xenografted with human HL60 cells assessed as mortality at 20 ug/ml relative to control
# Format: organism-based, Danio rerio
# conditions.used: read-out: Activity

test.smiles: CC1=C2CC[C@@](C)(O)[C@@H]2[C@H]2OC(=O)[C@@H](CN(C)C)[C@@H]2CC1.O=C(O)/C=C/C(=O)O
mortality at 20 ug/ml [%]: 80
